Numbers sourced from patent US20250206751A1.

# Test system: human G12D mutant KRAS-positive pancreatic cancer line AsPC-1
# measurement_protocol: Non-anchorage-dependent cell growth inhibition, spheroid 3D cell culture (Test Example 3)
# Format: cell-based
# test_conditions: Homo sapiens, ASPC1, 144 h, AsPC-1 spheroid 3D culture, 6 days, CellTiter Glo 2.0
value_type: pIC50
Entry type: numeric. Quantity: pIC50, the -log10 of concentration in molar units.

1) Cc1ncsc1-c1ccc([C@H](CO)NC(=O)[C@@H]2C[C@@H](O)CN2C(=O)[C@H](C(C)C)n2cc(-c3ccc(COc4c(-c5c(C)c(F)cc6[nH]ncc56)c(C5CC5)cc5c(N(C)[C@H]6CCNC6)nc(OC[C@H]6CCOC6)nc45)cc3)nn2)cc1 (atropisomer, axis not shown) = 8.10

Consider the record given below.
pIC50 reported for this compound CO[C@@H](C)[C@H](C)Oc1nc(N(C)[C@H]2CCNC2)c2cc(C3CC3)c(-c3c(C)c(F)cc4[nH]ncc34)c(OCc3ccc(-c4cn([C@H](C(=O)N5C[C@H](O)C[C@H]5C(=O)N[C@@H](CO)c5ccc(-c6scnc6C)cc5)C(C)C)nn4)cc3)c2n1 (atropisomer, axis not shown) : 7.68
